Target: 5-hydroxytryptamine receptor 7 (Homo sapiens)
Sequence (P34969 whole entry): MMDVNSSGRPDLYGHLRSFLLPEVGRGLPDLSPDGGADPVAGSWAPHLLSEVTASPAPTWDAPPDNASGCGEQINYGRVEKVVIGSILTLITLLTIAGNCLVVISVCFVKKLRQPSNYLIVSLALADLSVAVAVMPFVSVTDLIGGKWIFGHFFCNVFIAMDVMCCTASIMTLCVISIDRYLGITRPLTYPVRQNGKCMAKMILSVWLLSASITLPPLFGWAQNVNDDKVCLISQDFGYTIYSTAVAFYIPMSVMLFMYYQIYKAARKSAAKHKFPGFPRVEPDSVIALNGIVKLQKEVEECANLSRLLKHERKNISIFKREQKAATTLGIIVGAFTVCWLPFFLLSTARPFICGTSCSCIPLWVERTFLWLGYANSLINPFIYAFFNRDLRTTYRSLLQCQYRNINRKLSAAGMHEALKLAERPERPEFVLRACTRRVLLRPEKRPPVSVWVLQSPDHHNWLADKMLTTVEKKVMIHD
pKi: −log10 of the molar value.
Quick rule for you: pKi at 7 or higher means Y, lower means N.

Sample answers from the record:
CHEMICAL_STRING	ASSIGNED_CATEGORY
COc1ccccc1-c1ccccc1OCCN(C)C	N
CN(C)CCc1nncc(-c2ccccc2)n1	N
COc1cccc(OC)c1-c1cccc2c1OC[C@H](N(C)C)C2	Y

Would you kindly look at the next entry?
Query: Say whether Cc1cccc(C)c1-c1ccccc1SCCN(C)C shows pKi of 7 or more.
Result: N

====

Target: 5-hydroxytryptamine receptor 1A (Rattus norvegicus, UniProt P19327)
Sequence (P19327 whole entry): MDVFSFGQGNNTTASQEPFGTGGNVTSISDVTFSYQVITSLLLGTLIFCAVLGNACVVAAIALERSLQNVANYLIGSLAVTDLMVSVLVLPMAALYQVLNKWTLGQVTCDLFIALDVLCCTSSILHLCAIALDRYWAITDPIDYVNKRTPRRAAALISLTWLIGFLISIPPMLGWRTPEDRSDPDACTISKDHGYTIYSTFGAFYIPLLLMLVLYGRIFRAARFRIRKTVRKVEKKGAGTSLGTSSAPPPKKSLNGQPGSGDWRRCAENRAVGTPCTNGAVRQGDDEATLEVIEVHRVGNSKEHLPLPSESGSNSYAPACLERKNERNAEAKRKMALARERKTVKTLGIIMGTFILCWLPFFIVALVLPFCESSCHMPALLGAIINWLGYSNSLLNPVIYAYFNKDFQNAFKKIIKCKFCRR
MEASUREMENT_KIND: pKi
Please report pKi as the negative decimal logarithm of the molar concentration, giving only the number.

Before answering, review these 3 worked examples.
CHEMICAL_STRING	pKi
CN(C)CCSc1cccc(-c2ccccc2)n1	7.37
CN(C)CCSc1cccc(-c2ccccc2)c1	6.29
Cc1cccc(C)c1-c1cccc(OCCN(C)C)n1	5.14

API: the following record is the query input.
Query: pKi; subject: CN(C)CCOc1cccc(Br)n1
Result: 6.04
